Source: the NIST ThermoML archive (doi:10.1016/j.jct.2016.07.005)

# Measurement Description: xn = mol fraction of the nth substance listed
# Measurement Conditions: 298.15 K; 100 kPa; Liquid; Vibrating tube method; x1 = 0.1

Compound	mass density, kg/m3
CN1CCC[C@H]1c1cccnc1 [(-)-3-(N-methylpyrrolidino)pyridine] + CCC(C)O	837.728
CN1CCC[C@H]1c1cccnc1 [(-)-3-(N-methylpyrrolidino)pyridine] + CC(O)CO	1031.1
CN1CCC[C@H]1c1cccnc1 [(-)-3-(N-methylpyrrolidino)pyridine] + OCCCO	1045.96
CN1CCC[C@H]1c1cccnc1 [(-)-3-(N-methylpyrrolidino)pyridine] + CCCCO	841.123

###

# key: entry, value: refractive index
# Measurement Description: refractive index (Na D-line) (dimensionless); xn = mol fraction of the nth substance listed
# Measurement Conditions: 318.15 K; 100 kPa; Liquid; Standard Abbe refractometry; x1 = 0.3

Molecule	refractive index
CN1CCC[C@H]1c1cccnc1 [(-)-3-(N-methylpyrrolidino)pyridine] + CCCCO	1.44562
CN1CCC[C@H]1c1cccnc1 [(-)-3-(N-methylpyrrolidino)pyridine] + OCCCO	1.4764
CN1CCC[C@H]1c1cccnc1 [(-)-3-(N-methylpyrrolidino)pyridine] + CCC(C)O	1.44297
CN1CCC[C@H]1c1cccnc1 [(-)-3-(N-methylpyrrolidino)pyridine] + CC(O)CO	1.47031

###

# key: entry, value: viscosity
# Measurement Description: xn = mol fraction of the nth substance listed
# Measurement Conditions: 303.15 K; 100 kPa; Liquid; Concentric cylinders viscometry; x1 = 0.3
Measured Metric: viscosity (mPa·s)

Compound	Measured Metric	Meas Value
CN1CCC[C@H]1c1cccnc1 [(-)-3-(N-methylpyrrolidino)pyridine] + CC(O)CO	viscosity	24.37
CN1CCC[C@H]1c1cccnc1 [(-)-3-(N-methylpyrrolidino)pyridine] + OCCCO	viscosity	32.31
CN1CCC[C@H]1c1cccnc1 [(-)-3-(N-methylpyrrolidino)pyridine] + CCCCO	viscosity	2.642
CN1CCC[C@H]1c1cccnc1 [(-)-3-(N-methylpyrrolidino)pyridine] + CCC(C)O	viscosity	2.704

###

# Measurement Description: xn = mol fraction of the nth substance listed
# Measurement Conditions: 298.15 K; 100 kPa; Liquid; Vibrating tube method; x1 = 0.3
# key: entry, value: mass density
Measured Metric: mass density (kg/m3)

Compound	Meas Value
CN1CCC[C@H]1c1cccnc1 [(-)-3-(N-methylpyrrolidino)pyridine] + OCCCO	1037.55
CN1CCC[C@H]1c1cccnc1 [(-)-3-(N-methylpyrrolidino)pyridine] + CC(O)CO	1026.32
CN1CCC[C@H]1c1cccnc1 [(-)-3-(N-methylpyrrolidino)pyridine] + CCCCO	897.182
CN1CCC[C@H]1c1cccnc1 [(-)-3-(N-methylpyrrolidino)pyridine] + CCC(C)O	894.137

###

# Measurement Description: xn = mol fraction of the nth substance listed
# Measurement Conditions: 323.15 K; 100 kPa; Liquid; Vibrating tube method; x1 = 0.9
± gives the expanded uncertainty stated by the source.
# key: entry, value: mass density

Compound	mass density
CN1CCC[C@H]1c1cccnc1 [(-)-3-(N-methylpyrrolidino)pyridine] + CC(O)CO	988.38 ± 1 kg/m3
CN1CCC[C@H]1c1cccnc1 [(-)-3-(N-methylpyrrolidino)pyridine] + OCCCO	990.406 ± 1 kg/m3
CN1CCC[C@H]1c1cccnc1 [(-)-3-(N-methylpyrrolidino)pyridine] + CCC(C)O	975.504 ± 1 kg/m3
CN1CCC[C@H]1c1cccnc1 [(-)-3-(N-methylpyrrolidino)pyridine] + CCCCO	975.66 ± 1 kg/m3

###

# key: entry, value: refractive index
# Measurement Description: refractive index (Na D-line) (dimensionless); xn = mol fraction of the nth substance listed
# Measurement Conditions: 313.15 K; 100 kPa; Liquid; Standard Abbe refractometry; x1 = 0.5
Numbers after ± are expanded uncertainties.
Measured Metric: refractive index

Compound	Meas Value
CN1CCC[C@H]1c1cccnc1 [(-)-3-(N-methylpyrrolidino)pyridine] + CCC(C)O	1.47192 ± 0.00038
CN1CCC[C@H]1c1cccnc1 [(-)-3-(N-methylpyrrolidino)pyridine] + CC(O)CO	1.49092 ± 0.00038
CN1CCC[C@H]1c1cccnc1 [(-)-3-(N-methylpyrrolidino)pyridine] + OCCCO	1.49571 ± 0.00046
CN1CCC[C@H]1c1cccnc1 [(-)-3-(N-methylpyrrolidino)pyridine] + CCCCO	1.47404 ± 0.00038

###

# Measurement Description: xn = mol fraction of the nth substance listed
# Measurement Conditions: 323.15 K; 100 kPa; Liquid; Concentric cylinders viscometry; x1 = 0.3
# key: entry, value: viscosity

Compound	Value Unit	viscosity
CN1CCC[C@H]1c1cccnc1 [(-)-3-(N-methylpyrrolidino)pyridine] + CC(O)CO	mPa·s	9.306
CN1CCC[C@H]1c1cccnc1 [(-)-3-(N-methylpyrrolidino)pyridine] + CCC(C)O	mPa·s	1.662
CN1CCC[C@H]1c1cccnc1 [(-)-3-(N-methylpyrrolidino)pyridine] + CCCCO	mPa·s	1.708
CN1CCC[C@H]1c1cccnc1 [(-)-3-(N-methylpyrrolidino)pyridine] + OCCCO	mPa·s	13.05

###

# key: entry, value: mass density
# Measurement Conditions: 308.15 K; 100 kPa; Liquid; Vibrating tube method

Compound	Value Unit	mass density
CC(O)CO (stereo not given)	kg/m3	1025.16
CCC(C)O (stereo not given)	kg/m3	794.525
CN1CCC[C@H]1c1cccnc1 [(-)-3-(N-methylpyrrolidino)pyridine]	kg/m3	998.055
CCCCO	kg/m3	798.276
OCCCO	kg/m3	1043.63
